Data provenance is ChEMBL document CHEMBL1144663.

# assay-procedure: Cytotoxicity against human C8166 cells after 72 hrs by MTT method
# Format: cell-based
observation-type: CC50 at 72 h (µM)
Give bare numbers, in µM.

1. COc1cc2c(cc1OC)C(c1ccc(Br)cc1)NCC2 (centres undefined)
37.9
2. COc1cc2c(cc1OC)C(c1ccccc1)NCC2 (centres undefined)
294

The record that follows has no CC50 at 72 h shown yet.
Summary for this molecule, COc1cc2c(cc1OC)C(c1cccc(Cl)c1)NCC2 (centres undefined) : CC50 at 72 h is 184

* * *

# assay-procedure: Selectivity index, ratio of CC50 for C8166 cells to EC50 for HIV1 3B
# Assay type: functional
observation-type: Ratio CC50/EC50
One number for each entry.

The examples below pair each entry with its known result.
1. COc1cc2c(cc1OC)C(c1cccc3ccccc13)NCC2 (stereo not drawn)
2.9
2. COc1cc2c(cc1OC)C(c1ccccc1C)NCC2 (stereo not drawn)
4.6
3. COc1cc2c(cc1OC)C(c1ccccc1Br)NCC2 (stereo not drawn)
2.8
4. COc1cc2c(cc1OC)C(c1ccccn1)NCC2 (stereo not drawn)
2.8
5. Oc1cc2c(cc1O)C(c1cccc3ccccc13)NCC2 (stereo not drawn)
1.9
6. COc1cc2c(cc1OC)C(c1ccccc1OC)NCC2 (stereo not drawn)
12
7. COc1ccc(C2NCCc3cc(OC)c(OC)cc32)c(OC)c1 (stereo not drawn)
5.2
8. COc1cc2c(cc1OC)C(c1ccccc1)NCC2 (stereo not drawn)
2.4

The following compounds each have a reported value; give each one's Ratio CC50/EC50.
1. COc1cc2c(cc1OC)C(c1ccc(C)cc1)NCC2 (stereo not drawn)
2. Oc1cc2c(cc1O)C(c1ccc(C(F)(F)F)cc1)NCC2 (stereo not drawn)
3. COc1cc2c(cc1OC)C(c1ccccc1Cl)NCC2 (stereo not drawn)
4. COc1cc2c(cc1OC)C(c1ccco1)NCC2 (stereo not drawn)
5. COc1cc2c(cc1OC)C(c1ccccc1F)NCC2 (stereo not drawn)
6. COc1cc2c(cc1OC)C(c1ccc3ccccc3c1)NCC2 (stereo not drawn)

Result ::
[4.2, 1.5, 4.3, 3.8, 2.8, 7.9]

The following compounds each have a reported value; give each one's Ratio CC50/EC50.
1. COc1ccc(C2NCCc3cc(OC)c(OC)cc32)cc1 (stereo not drawn)
2. COc1cc2c(cc1OC)C(c1ccc(Br)cc1)NCC2 (stereo not drawn)

Result ::
1: 2.5; 2: 2.2
